// data source = PubChem BioAssay (NCI)

# System: HOP-62 NSCLC
# Assay method text: NCI tumour cell line growth inhibition, 48 h
Below, each entry is listed alongside its reported TGI.
Readout kind: TGI

>  <Compound>
Cc1nc(-n2[nH]c(C)c(CCO)c2=O)[nH]c(=O)c1CCO

>  <Value observed>
> 100 µM

$$$$
>  <Compound>
C=CN1C(=O)OC[C@@H]1c1ccccc1

>  <Value observed>
> 100 µM

$$$$
>  <Compound>
C=CCOC1=C(OCC=C)C(C2COC(C)(C)O2)OC1=O (stereo not given)

>  <Value observed>
> 100 µM

$$$$
>  <Compound>
CC(C)C[C@H](NC(=O)[C@H]1O[C@@H]1C(=O)O)C(=O)NCCc1ccc(O)cc1

>  <Value observed>
> 100 µM

$$$$
>  <Compound>
CN(C)CCNC(=O)c1ccc(C(=O)NCCN(C)C)c2nc3ccccc3cc12

>  <Value observed>
4.45 µM

$$$$
>  <Compound>
c1cc(CSP234N5CCN2CCN3CCN4CC5)ccc1CSP123N4CCN1CCN2CCN3CC4

>  <Value observed>
> 100 µM

$$$$
>  <Compound>
CCOP(=O)(OCC)/C(C#N)=C/c1ccc(-c2ccc(F)cc2F)o1

>  <Value observed>
33.8 µM

$$$$
>  <Compound>
COC(=O)C12OC(C)(C(CC(=O)OC(C)(C)C)C1=O)C1C(=O)N(c3ccccc3)C(=O)C12 (stereo not given)

>  <Value observed>
> 100 µM

$$$$
>  <Compound>
C=CCOc1ccc(/C(N=Nc2ccccc2)=N/NC(=O)c2ccccc2)cc1OC

>  <Value observed>
> 100 µM

$$$$
>  <Compound>
Cc1cc(NC(=O)NC(=O)c2ccccc2N)ccc1Oc1ncc(Br)cn1

>  <Value observed>
31.2 µM

$$$$

---

# System: LOX IMVI melanoma
# Assay method text: NCI tumour cell line growth inhibition, 48 h
Below, each entry is listed alongside its reported TGI.

>  <Test smiles>
O=C(CCCCCCSc1nc(-c2ccccc2)cc(-c2ccccc2)n1)NO

>  <TGI>
3.84 µM

$$$$
>  <Test smiles>
NC1=NNC2(C(=O)N1)c1ccccc1-c1ccccc12

>  <TGI>
> 10 µM

$$$$
>  <Test smiles>
Cc1cc(NC(=O)NC(=O)c2ccccc2N)ccc1Oc1ncc(Br)cn1

>  <TGI>
> 67.1 µM

$$$$

---

# Tested on: ACHN renal
# Assay method text: NCI tumour cell line growth inhibition, 48 h
Readout kind: TGI

>  <Compound>
C#CCOCn1ccc(=O)[nH]c1=O

>  <Value observed>
> 100 µM

$$$$
>  <Compound>
C=C[C@H]1CC[C@H]2[C@@H]3CC=C4C[C@@H](OC5OCC(O)C(O)C5O)CC[C@]4(C)[C@H]3CC[C@]12C (stereo partly specified)

>  <Value observed>
10.8 µM

$$$$
>  <Compound>
N#CCC(=O)c1cc(OCc2cc(OCc3ccc(Br)cc3)cc(OCc3ccc(Br)cc3)c2)cc(OCc2cc(OCc3ccc(Br)cc3)cc(OCc3ccc(Br)cc3)c2)c1

>  <Value observed>
> 100 µM

$$$$
>  <Compound>
COc1ccc(C/C(C)=C(\c2ccc(OCCN3CCOCC3)cc2)c2ccc(OC(=O)Cc3ccccc3)cc2)cc1

>  <Value observed>
3.38 µM

$$$$
>  <Compound>
CC(C)C[C@H](NC(=O)[C@H]1O[C@@H]1C(=O)O)C(=O)NCCc1ccc(O)cc1

>  <Value observed>
> 100 µM

$$$$
>  <Compound>
c1ccc(-c2cs[s+]c2)cc1

>  <Value observed>
> 100 µM

$$$$
>  <Compound>
COc1ccc(N=Nc2ccc3oc(=O)c(C(=O)Nc4ccccc4)cc3c2)cc1

>  <Value observed>
> 10 µM

$$$$
>  <Compound>
O=C(O)CCC(NC(=O)c1ccc(Nc2cnc3ccc(C(F)(F)F)cc3n2)cc1)C(=O)O (stereo unspecified)

>  <Value observed>
> 100 µM

$$$$
>  <Compound>
CC(=O)Nc1ccc(/C=N\N2C(=O)c3ccccc3C2=O)cc1

>  <Value observed>
> 100 µM

$$$$
>  <Compound>
Cc1nc2sc(C(=O)Nc3cccc4ccccc34)c(N)c2cc1C(=O)/C=C/c1ccccc1

>  <Value observed>
1.25 µM

$$$$
>  <Compound>
Cc1ccccc1NC(=O)C(=O)CC(=O)c1sc(Nc2ccccc2[N+](=O)[O-])nc1C

>  <Value observed>
48.3 µM

$$$$
>  <Compound>
O=c1[nH]c(=O)n(COCCO)c2ccc(Br)cc12

>  <Value observed>
> 100 µM

$$$$
>  <Compound>
CCOP1(=O)C=C(Sc2ccc([N+](=O)[O-])cc2[N+](=O)[O-])C(C)(C)O1 (stereo unspecified)

>  <Value observed>
28 µM

$$$$
>  <Compound>
NC(=O)NO

>  <Value observed>
2060 µM

$$$$
>  <Compound>
C=C1C(=O)OC2C1CC[C@H](C)C13OC(=O)CC1[C@@]23C (stereo partly specified)

>  <Value observed>
> 100 µM

$$$$
>  <Compound>
O=C(O)C12C3C4C1C1C2C3C1(Br)C41OCCO1 (stereo unspecified)

>  <Value observed>
> 100 µM

$$$$
>  <Compound>
CCCCn1cnnc1NS(=O)(=O)c1cc(C)c(Cl)cc1SCC(=O)O

>  <Value observed>
> 10 µM

$$$$
>  <Compound>
CN(C(=O)c1ccc(Cl)cc1)C(=S)N1CCN(c2ccccn2)CC1

>  <Value observed>
> 100 µM

$$$$
>  <Compound>
C=CC(=O)N1CCN(c2nc(OC[C@@H]3CCCN3C)nc3c2CCN(c2cccc4cccc(C)c24)C3)C[C@@H]1CC#N

>  <Value observed>
2.14 µM

$$$$
>  <Compound>
CCN(CCCN(CC)C(=O)Nc1ccccc1)C(=O)Nc1ccccc1

>  <Value observed>
> 100 µM

$$$$
>  <Compound>
CS(=O)(=O)OCCn1cnc2nc(NC(=O)c3ccccc3)[nH]c(=O)c21

>  <Value observed>
> 100 µM

$$$$

---

Below, each entry is listed alongside its reported TGI.
# Tested on: CCRF-CEM leukemia
# Assay method text: NCI tumour cell line growth inhibition, 48 h
Where a SMILES comes first, the peptide text is derived from it. The star is where a group is joined. Cbz = O=C(OCc1ccccc1)*; Boc = CC(C)(C)OC(=O)*; Bn = c1ccc(C*)cc1

>  <Molecule>
O=C(/C=C/c1ccc(Cl)c(Cl)c1)c1ccc(F)cc1

>  <TGI>
20.5 µM

$$$$
>  <Molecule>
CC(C)(C)OC(=O)NC(Cc1ccc(OCc2ccccc2)cc1)C(=O)NC(CCCCNC(=O)OCc1ccccc1)C(=O)O (stereo not drawn) (Boc-Tyr(Bn)-Lys(Cbz)-OH; configuration not given here)

>  <TGI>
> 100 µM

$$$$
>  <Molecule>
CC1(C)C2CCC(N)(C2)C1N (stereo not drawn)

>  <TGI>
> 100 µM

$$$$
>  <Molecule>
O=C1c2ccc3c4c5ccc(c24)C(=O)N1CCCOCCCCOCCCNCc1ccc(cc1)CNCCCOCCCCOCCCN(C3=O)C5=O

>  <TGI>
2.84 µM

$$$$
>  <Molecule>
COC(=O)[C@@H](O)[C@]1(C(=O)OC)C2O[C@@H](OC)[C@@H]1CCCCCC[C@H]2O

>  <TGI>
> 100 µM

$$$$
>  <Molecule>
C=C1C(=O)OC2C1CC[C@H](C)C13OC(=O)CC1[C@@]23C (stereo partly drawn)

>  <TGI>
> 100 µM

$$$$
>  <Molecule>
COc1ccccc1N1C(Cl)C(=O)C1c1c[nH]c2ccccc12 (stereo not drawn)

>  <TGI>
> 100 µM

$$$$
>  <Molecule>
COc1ccc2c(c1)c(-c1nc(-c3c[nH]c4ncccc34)cs1)cn2CCCCN1CCOCC1

>  <TGI>
5.1 µM

$$$$

---

# Tested on: HOP-92 NSCLC
# Assay method text: NCI tumour cell line growth inhibition, 48 h

>  <Compound>
O=C(N/N=C/c1ccc([N+](=O)[O-])cc1)c1cccc2nc3ccccc3nc12

>  <Target entity>
HOP-92 NSCLC

>  <TGI>
> 87.3 µM

$$$$
>  <Compound>
COc1ccc(N(C)Sc2ccccc2)cc1

>  <Target entity>
HOP-92 NSCLC

>  <TGI>
> 100 µM

$$$$
>  <Compound>
Cc1ccccc1NC(=O)C(=O)CC(=O)c1sc(Nc2ccccc2[N+](=O)[O-])nc1C

>  <Target entity>
HOP-92 NSCLC

>  <TGI>
59.6 µM

$$$$
>  <Compound>
CN(CC(=O)O)c1ccc(/C=C/c2ccnc3ccccc23)cc1

>  <Target entity>
HOP-92 NSCLC

>  <TGI>
> 100 µM

$$$$
>  <Compound>
COc1ccc(N=Nc2ccc3oc(=O)c(C(=O)Nc4ccccc4)cc3c2)cc1

>  <Target entity>
HOP-92 NSCLC

>  <TGI>
> 10 µM

$$$$
>  <Compound>
Nc1ncnc2c1ncn2CC(O)C(=O)O (stereo unspecified)

>  <Target entity>
HOP-92 NSCLC

>  <TGI>
> 100 µM

$$$$
>  <Compound>
CCCCCCCCCCCCCCCCCCNc1ccn(C2OC(CO)C(O)C2O)c(=O)n1 (stereo unspecified)

>  <Target entity>
HOP-92 NSCLC

>  <TGI>
> 100 µM

$$$$
>  <Compound>
Cc1cccc(NC(=O)c2cc3cc(N=Nc4ccccc4Cl)ccc3oc2=O)c1

>  <Target entity>
HOP-92 NSCLC

>  <TGI>
76.1 µM

$$$$
>  <Compound>
C/C(=N\Nc1ccccc1Br)c1cccc(/C(C)=N/Nc2ccccc2Br)n1

>  <Target entity>
HOP-92 NSCLC

>  <TGI>
> 100 µM

$$$$
>  <Compound>
COCC1N=C(c2cc(OC)c(OC)c(OC)c2-c2cc3c(cc2C2OCCCO2)OCO3)O[C@H]1c1ccccc1 (stereo partly specified)

>  <Target entity>
HOP-92 NSCLC

>  <TGI>
> 100 µM

$$$$
>  <Compound>
Cc1cc(OCc2nn(CN3CCN(C)CC3)c(=S)n2/N=C/c2ccc(-c3ccc(Cl)cc3Cl)o2)ccc1Cl

>  <Target entity>
HOP-92 NSCLC

>  <TGI>
95.9 µM

$$$$
>  <Compound>
C/C(=C\c1ccn(-c2ccc(N)c(F)c2)n1)[C@@H]1C[C@@H]2O[C@]2(C)CCC[C@H](C)[C@H](O)[C@@H](C)C(=O)C(C)(C)[C@@H](O)CC(=O)O1

>  <Target entity>
HOP-92 NSCLC

>  <TGI>
> 44.4 µM

$$$$
>  <Compound>
N#Cc1c(-c2ccc(Cl)cc2)c(C#N)c(=O)n(NS(=O)(=O)c2ccccc2)c1S

>  <Target entity>
HOP-92 NSCLC

>  <TGI>
> 100 µM

$$$$
>  <Compound>
CC1CC2C(=O)N(c3ccccc3)C(=O)C2c2c1c1ccccc1n2Cc1ccccc1 (stereo unspecified)

>  <Target entity>
HOP-92 NSCLC

>  <TGI>
> 100 µM

$$$$
>  <Compound>
O=C(O)C(O)Cc1ccccn1 (stereo unspecified)

>  <Target entity>
HOP-92 NSCLC

>  <TGI>
> 100 µM

$$$$
>  <Compound>
CCCCNc1c(CN)cnc2cc(Cl)ccc12

>  <Target entity>
HOP-92 NSCLC

>  <TGI>
35.1 µM

$$$$
>  <Compound>
NC1=C(Br)C(=O)c2ncccc2C1=O

>  <Target entity>
HOP-92 NSCLC

>  <TGI>
3.06 µM

$$$$
>  <Compound>
COP(=O)(OC)C(=NCc1ccccc1)NNc1ccc([N+](=O)[O-])cc1

>  <Target entity>
HOP-92 NSCLC

>  <TGI>
54.4 µM

$$$$
>  <Compound>
O=C1/C(=C/c2ccc([N+](=O)[O-])o2)Oc2ccc(Br)cc21

>  <Target entity>
HOP-92 NSCLC

>  <TGI>
3.1 µM

$$$$
>  <Compound>
CS(=O)(=O)OCCn1cnc2nc(NC(=O)c3ccccc3)[nH]c(=O)c21

>  <Target entity>
HOP-92 NSCLC

>  <TGI>
> 100 µM

$$$$
>  <Compound>
C=C[C@H]1CC[C@H]2[C@@H]3CC=C4C[C@@H](OC5OCC(O)C(O)C5O)CC[C@]4(C)[C@H]3CC[C@]12C (stereo partly specified)

>  <Target entity>
HOP-92 NSCLC

>  <TGI>
16.8 µM

$$$$
